Provenance of the data: the supplement of paper PMC9732359

assay_method_text: protein stability index of a GFP-peptide fusion (yeast GPS) (PSI 1-4); higher = more stable; sorted into four equal gates, so the index is relative within each strain
applied_conditions: ubr1∆
reported_endpoint: protein stability index

>  <seq_text>
LGPRGVSITPGKIEKIA [SRP21]

>  <reported_measurement>
2.41

$$$$
>  <seq_text>
FVSSLSNTSTLKNMLYV [BRR2]

>  <reported_measurement>
2.18

$$$$
>  <seq_text>
NNSAPNNTNNANSSITP [YJL041W/NSP1]

>  <reported_measurement>
2.72

$$$$
>  <seq_text>
ESNKRYRFFKKISEDPV [SNF12]

>  <reported_measurement>
2.69

$$$$
>  <seq_text>
PENTAMFNPLHESYCLP [YMR129W/POM152]

>  <reported_measurement>
2.6

$$$$
>  <seq_text>
VDVQAPTDDKTLKPTFS [YOR098C/NUP1]

>  <reported_measurement>
3.27

$$$$
>  <seq_text>
DLIRSESMLHLSIWIKN [IRR1]

>  <reported_measurement>
1.8

$$$$
